molecular target: Human 5-HT Transporter (Homo sapiens); construct: endogenous in cells; host or cells: Jar cells (human carcinoma cell line), treated with staurosporine; experiment: Inhibition of 3H-5-HT uptake by Jar cells possessing the human 5-HT transporter; assay type: cell-based; details: Jar cells treated with staurosporine, read-out: 5HT Uptake h5HT-T IC50 (nM) (Example 20)
Sequence (P31645 whole entry): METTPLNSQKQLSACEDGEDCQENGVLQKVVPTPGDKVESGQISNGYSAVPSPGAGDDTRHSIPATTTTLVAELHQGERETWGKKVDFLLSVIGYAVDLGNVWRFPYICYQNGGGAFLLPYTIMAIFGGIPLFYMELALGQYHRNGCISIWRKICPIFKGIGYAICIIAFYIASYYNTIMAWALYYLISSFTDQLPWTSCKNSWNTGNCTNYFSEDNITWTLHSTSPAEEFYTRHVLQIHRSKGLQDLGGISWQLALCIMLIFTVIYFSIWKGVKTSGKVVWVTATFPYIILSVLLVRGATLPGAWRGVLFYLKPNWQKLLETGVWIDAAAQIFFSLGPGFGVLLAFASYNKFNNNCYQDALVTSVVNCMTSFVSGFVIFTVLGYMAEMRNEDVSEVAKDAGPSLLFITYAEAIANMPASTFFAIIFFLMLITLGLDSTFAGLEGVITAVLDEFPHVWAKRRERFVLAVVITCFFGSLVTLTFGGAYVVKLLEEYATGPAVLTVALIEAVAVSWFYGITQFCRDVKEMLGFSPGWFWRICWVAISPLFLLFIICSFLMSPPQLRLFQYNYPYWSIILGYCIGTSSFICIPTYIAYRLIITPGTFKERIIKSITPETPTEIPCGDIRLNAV
VALUE_TYPE: IC50 (nM)
Please respond with the number in nM and leave the unit unwritten.

// query GET /values?readout=IC50&item= `Cc1ccc2c3c(ccc2n1)OC[C@H](CNCCCN1CCOc2ccc(F)cc21)O3`
// result 4710

// query Cool, now `Cc1ccc2c3c(ccc2n1)OC[C@H](CNCCCN1CCc2ccccc21)O3`
// result 180

// query Cool, now `Cc1ccc2c3c(ccc2n1)OC[C@H](CNCCCN1CCCc2ccc(F)cc21)O3`
// result 32.9

// query Cool, now `Cc1ccc2c3c(ccc2n1)OC[C@H](CNCCCCN1CCc2ccc(F)cc21)O3`
// result 161

// query Cool, now `Cc1ccc2c3c(ccc2n1)OC[C@H](CNCCCN1CCCc2cc(F)c(F)cc21)O3`
// result 77

// query Cool, now `Cc1ccc2c3c(ccc2n1)OC[C@H](CNCCCN1CCCc2cc(F)ccc21)O3`
// result 76.9

// query Cool, now `Cc1ccc2c3c(ccc2n1)OC[C@H](CNCCCN1CCCc2ccccc21)O3`
// result 150

// query Cool, now `Cc1ccc2c3c(ccc2n1)OC[C@H](CNCCCCN1CCCc2ccccc21)O3`
// result 438

// query Cool, now `Cc1ccc2c3c(ccc2n1)OC[C@H](CNCCCN1CCc2ccc(F)cc21)O3`
// result 107

====

target: serotonin transporter (Rattus norvegicus); construct: frontal cortical membranes prepared from male Sprague Dawley rats; from tissue; host or cells: rat frontal cortex membranes (male Sprague Dawley); assay: 3H-paroxetine binding to rat frontal cortical membranes, affinity for the serotonin transporter; details: 3H-paroxetine 0.1 nM, male Sprague Dawley rat frontal cortical membranes; read-out: 5HT Uptake r5HT-T Ki (nM) (Example 18)
Sequence (P31652 whole entry): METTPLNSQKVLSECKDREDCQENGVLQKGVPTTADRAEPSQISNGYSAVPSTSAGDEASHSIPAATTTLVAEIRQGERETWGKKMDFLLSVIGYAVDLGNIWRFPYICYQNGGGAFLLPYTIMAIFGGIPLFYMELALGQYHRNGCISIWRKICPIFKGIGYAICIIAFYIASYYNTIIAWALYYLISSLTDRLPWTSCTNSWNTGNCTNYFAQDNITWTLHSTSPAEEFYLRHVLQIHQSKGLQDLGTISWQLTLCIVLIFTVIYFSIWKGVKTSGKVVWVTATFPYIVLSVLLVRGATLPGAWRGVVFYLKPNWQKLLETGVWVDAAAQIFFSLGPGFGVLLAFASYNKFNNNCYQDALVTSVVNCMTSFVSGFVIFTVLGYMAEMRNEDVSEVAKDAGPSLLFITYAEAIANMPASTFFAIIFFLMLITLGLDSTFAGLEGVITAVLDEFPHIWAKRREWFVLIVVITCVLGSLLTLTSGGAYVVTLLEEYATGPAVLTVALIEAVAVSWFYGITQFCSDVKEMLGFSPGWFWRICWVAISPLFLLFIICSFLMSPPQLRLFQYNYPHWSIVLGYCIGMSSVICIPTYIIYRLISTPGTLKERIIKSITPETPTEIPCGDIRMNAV
Exercise: for every item that follows, state its recorded Ki.
Please respond with the number in nM and leave the unit unwritten.

// query GET /values?readout=Ki&item= `Cc1ccc2c3c(ccc2n1)OC[C@H](CNCCCN1CCOc2ccc(F)cc21)O3`
// result 14.7

// query Cool, now `Cc1ccc2c3c(ccc2n1)OC[C@H](CNCCCN1CCCc2ccc(F)cc21)O3`
// result 7.7

// query Cool, now `Cc1ccc2c3c(ccc2n1)OC[C@H](CNCCCCN1CCc2ccc(F)cc21)O3`
// result 3.3

// query Cool, now `Cc1ccc2c3c(ccc2n1)OC[C@H](CNCCCN1CCCc2cc(F)c(F)cc21)O3`
// result 12.3

// query Cool, now `Cc1ccc2c3c(ccc2n1)OC[C@H](CNCCCN1CCc2cc(F)ccc21)O3`
// result 10.2

// query Cool, now `Cc1ccc2c3c(ccc2n1)OC[C@H](CNCCCN1CCCCc2ccccc21)O3`
// result 36.2

// query Cool, now `Cc1ccc2c3c(ccc2n1)OC[C@H](CNCCCN1CCCc2cc(F)c(Cl)cc21)O3`
// result 116

// query Cool, now `Cc1ccc2c3c(ccc2n1)OC[C@H](CNCCCN1CCc2ccccc21)O3`
// result 21.1

// query Cool, now `Cc1ccc2c3c(ccc2n1)OC[C@H](CNCCCCN1CCCc2ccccc21)O3`
// result 11.8

// query Cool, now `Cc1ccc2c3c(ccc2n1)OC[C@H](CNCCCN1CCCc2ccccc21)O3`
// result 13

// query Cool, now `Cc1ccc2c3c(ccc2n1)OC[C@H](CNCCCN1CCCc2cc(F)cc(F)c21)O3`
// result 27

// query Cool, now `Cc1ccc2c3c(ccc2n1)OC[C@H](CNCCCN1CCCc2cc(F)ccc21)O3`
// result 7.2

// query Cool, now `Cc1ccc2c3c(ccc2n1)OC[C@H](CNCCCN1CCc2ccc(F)cc21)O3`
// result 2.8

// query Cool, now `Cc1ccc2c3c(ccc2n1)OC[C@H](CNCCCN1CCOc2ccccc21)O3`
// result 40.8

// query Cool, now `Cc1ccc2c3c(ccc2n1)OC[C@H](CNCCCN(C)c1ccccc1Cl)O3`
// result 3.5

====

Target: Human 5-HT1A Receptor (Homo sapiens, UniProt P08908)
Construct: expressed in transfected cells; host or cells: CHO cells (Chinese hamster ovary), stably transfected
Sequence (P08908 1-422): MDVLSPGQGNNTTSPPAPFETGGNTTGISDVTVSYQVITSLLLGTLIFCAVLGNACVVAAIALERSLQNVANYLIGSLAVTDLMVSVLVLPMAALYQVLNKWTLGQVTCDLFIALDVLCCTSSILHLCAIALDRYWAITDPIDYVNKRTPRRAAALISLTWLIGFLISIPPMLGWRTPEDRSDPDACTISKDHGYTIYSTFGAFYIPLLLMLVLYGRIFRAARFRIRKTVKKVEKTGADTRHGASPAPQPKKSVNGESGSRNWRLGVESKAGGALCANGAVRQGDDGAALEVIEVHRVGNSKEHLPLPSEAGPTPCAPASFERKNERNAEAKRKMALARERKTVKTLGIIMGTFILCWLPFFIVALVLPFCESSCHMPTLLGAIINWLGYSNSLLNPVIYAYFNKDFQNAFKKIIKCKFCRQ
Assay: 8-OH-DPAT binding, human 5-HT1A receptor cell line (displacement of [3H]-OHDPAT, stably transfected CHO cells)
Settings: [3H]-OHDPAT 1.5 nM, read-out: h5HT1A Affinity Ki (nM) (Example 17)
Exercise: for every item that follows, state its recorded Ki.
Please respond with the number in nM and leave the unit unwritten.

// query GET /values?readout=Ki&item= Cc1ccc2c3c(ccc2n1)OC[C@H](CNCCCN1CCCc2cc(F)c(Cl)cc21)O3 [Example 10]
// result 3.22

// query Cool, now Cc1ccc2c3c(ccc2n1)OC[C@H](CNCCCN1CCCCc2ccccc21)O3 [Example 12]
// result 0.79

// query Cool, now Cc1ccc2c3c(ccc2n1)OC[C@H](CNCCCN1CCOc2ccccc21)O3 [Example 6]
// result 2.58

// query Cool, now Cc1ccc2c3c(ccc2n1)OC[C@H](CNCCCN1CCCc2cc(F)ccc21)O3 [Example 8]
// result 1.44

// query Cool, now Cc1ccc2c3c(ccc2n1)OC[C@H](CNCCCN1CCc2ccc(F)cc21)O3 [Example 3]
// result 0.35

// query Cool, now Cc1ccc2c3c(ccc2n1)OC[C@H](CNCCCCN1CCCc2ccccc21)O3 [Example 15]
// result 0.66

// query Cool, now Cc1ccc2c3c(ccc2n1)OC[C@H](CNCCCN1CCCc2cc(F)cc(F)c21)O3 [Example 9]
// result 1.41

// query Cool, now Cc1ccc2c3c(ccc2n1)OC[C@H](CNCCCN1CCc2ccccc21)O3 [Example 5]
// result 0.62

====

Exercise: for every item that follows, state its recorded EC50.
molecular target: Human 5-HT1A Receptor (Homo sapiens, UniProt P08908); construct: expressed in transfected cells; host or cells: CHO cells (Chinese hamster ovary), stably transfected; assay: cAMP radioimmunoassay (RIA) in human 5-HT1A receptor cell line, inhibition of forskolin stimulated cAMP; assay type: cell-based; details: forskolin (1 μM) stimulated cAMP, stably transfected CHO cells; read-out: h5HT1A cAMP EC50 (nM) (Example 19)
Please respond with the number in nM and leave the unit unwritten.

// query GET /values?readout=EC50&item= `Cc1ccc2c3c(ccc2n1)OC[C@H](CNCCCN1CCCc2cc(F)c(Cl)cc21)O3`
// result 1.95

// query Cool, now `Cc1ccc2c3c(ccc2n1)OC[C@H](CNCCCN1CCCCc2ccccc21)O3`
// result 3.06

// query Cool, now `Cc1ccc2c3c(ccc2n1)OC[C@H](CNCCCN1CCCc2ccc(F)cc21)O3`
// result 1.57

// query Cool, now `Cc1ccc2c3c(ccc2n1)OC[C@H](CNCCCN1CCCc2ccccc21)O3`
// result 1.58

====

biological target: Human 5-HT1A Receptor (Homo sapiens); construct: expressed in transfected cells; host or cells: CHO cells (Chinese hamster ovary), stably transfected; assay: 8-OH-DPAT binding, human 5-HT1A receptor cell line (displacement of [3H]-OHDPAT, stably transfected CHO cells); details: [3H]-OHDPAT 1.5 nM, read-out: h5HT1A Affinity Ki (nM) (Example 17)
Flag rule - Ki less than 0.6 nM flags true; the remaining entries get false.

// query Ki under 0.6 nM? Item: Cc1ccc2c3c(ccc2n1)OC[C@H](CNCCCCN1CCc2ccc(F)cc21)O3 [Example 14]
// result true

// query Cool, now Cc1ccc2c3c(ccc2n1)OC[C@H](CNCCCN(C)c1ccccc1Cl)O3 [Example 13]
// result true

// query Cool, now Cc1ccc2c3c(ccc2n1)OC[C@H](CNCCCN1CCOc2ccc(F)cc21)O3 [Example 11]
// result false

// query Cool, now Cc1ccc2c3c(ccc2n1)OC[C@H](CNCCCN1CCCc2ccc(F)cc21)O3 [Example 4]
// result true

// query Cool, now Cc1ccc2c3c(ccc2n1)OC[C@H](CNCCCN1CCCc2cc(F)c(F)cc21)O3 [Example 7]
// result false

// query Cool, now Cc1ccc2c3c(ccc2n1)OC[C@H](CNCCCN1CCCc2ccccc21)O3 [Example 1]
// result false
